target: NK1 (Homo sapiens, UniProt P25103); assay: Signal transduction (ST), intracellular Ca++ (FLIPR), functional NK1 antagonistic activity; assay type: cell-based; details: antagonist, read-out: NK1 pIC50 (converted)
Sequence (P25103 whole entry): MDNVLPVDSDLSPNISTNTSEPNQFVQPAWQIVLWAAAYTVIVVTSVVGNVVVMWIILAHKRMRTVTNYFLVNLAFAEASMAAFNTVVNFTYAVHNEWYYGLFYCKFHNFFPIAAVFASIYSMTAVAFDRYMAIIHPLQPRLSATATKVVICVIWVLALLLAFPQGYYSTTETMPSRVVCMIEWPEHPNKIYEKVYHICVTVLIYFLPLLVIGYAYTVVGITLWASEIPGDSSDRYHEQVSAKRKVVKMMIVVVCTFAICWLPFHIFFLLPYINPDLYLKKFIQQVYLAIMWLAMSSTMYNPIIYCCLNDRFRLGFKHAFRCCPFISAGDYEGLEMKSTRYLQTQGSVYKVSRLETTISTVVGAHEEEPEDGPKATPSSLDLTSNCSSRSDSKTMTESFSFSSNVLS
READOUT: IC50 (nM)
Answers are plain numbers, in nM.

COMPOUND	UOM	IC50
CC(C)CN1CCC2(CCN([C@@H]3CCN(C(=O)c4cc(C(F)(F)F)cc(C(F)(F)F)c4)[C@H](Cc4ccccc4)C3)CC2)CC1=O [Compound 193]	nM	240
O=C1CC2(CCN1Cc1ccccc1F)CCN([C@@H]1CCN(C(=O)c3cc(C(F)(F)F)cc(C(F)(F)F)c3)[C@H](Cc3ccccc3)C1)CC2 [Compound 203]	nM	661
CC(C)(C)C1CCC(C(=O)N2CCC3(CC2)CCN([C@H]2CCN(C(=O)c4cc(C(F)(F)F)cc(C(F)(F)F)c4)[C@H](Cc4ccccc4)C2)CC3)CC1 (stereo partly shown) [Compound 40]	nM	977
CC(C)(C)OC(=O)N1CCCC1C(=O)N1CCC2(CCN(C[C@H]3CCN(C(=O)c4cc(C(F)(F)F)cc(C(F)(F)F)c4)[C@H](Cc4ccccc4)C3)CC2)CC1 (stereo partly shown) [Compound 181]	nM	33.9
N#Cc1ccc(S(=O)(=O)N2CCC3(CCN(C4CCN(C(=O)c5cc(C(F)(F)F)cc(C(F)(F)F)c5)C(Cc5ccccc5)C4)CC3)CC2)cc1 (stereo not shown) [Compound 119]	nM	66.1
Cc1ccoc1C(=O)N1CCC2(CC1)CCN([C@H]1CCN(C(=O)c3cc(C(F)(F)F)cc(C(F)(F)F)c3)[C@H](Cc3ccccc3)C1)CC2 [Compound 25]	nM	83.2

Now take the following compound into account.
// IC50 lookup, compound = CC1(C(=O)N2CCC3(CC2)CCN([C@H]2CCN(C(=O)c4cc(C(F)(F)F)cc(C(F)(F)F)c4)[C@H](Cc4ccccc4)C2)CC3)CCCCC1 [Compound 37] , result: 95.5
